This collection of values is drawn from patent US10323061B2.

Each entry below lists one item and its recorded pEC50 value.
# target desc: human FXR (NR1H4) (Homo sapiens, UniProt Q96RI1)
# Sequence (Q96RI1 whole entry, the tested form may be a part): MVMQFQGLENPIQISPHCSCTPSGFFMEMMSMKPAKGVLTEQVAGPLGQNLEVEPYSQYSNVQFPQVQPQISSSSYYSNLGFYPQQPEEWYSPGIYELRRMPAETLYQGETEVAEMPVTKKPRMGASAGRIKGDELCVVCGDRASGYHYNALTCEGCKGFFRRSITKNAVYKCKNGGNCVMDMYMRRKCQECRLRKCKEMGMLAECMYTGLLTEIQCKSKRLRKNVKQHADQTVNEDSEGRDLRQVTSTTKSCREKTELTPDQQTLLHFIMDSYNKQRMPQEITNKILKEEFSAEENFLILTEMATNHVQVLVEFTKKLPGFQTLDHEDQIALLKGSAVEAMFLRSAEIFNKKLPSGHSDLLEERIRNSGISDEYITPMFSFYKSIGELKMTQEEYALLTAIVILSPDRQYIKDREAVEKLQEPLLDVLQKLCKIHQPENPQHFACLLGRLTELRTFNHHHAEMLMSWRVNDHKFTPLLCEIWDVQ
# test method notes: Human FXR (NR1H4) Assay (Gal4 promoter driven luciferase reporter, Indigo Bioscience kit IB00601)
# test settings: FXR agonistic potency range; CHO reporter cells expressing human NR1H4; 22 hours incubation
pEC50: −log10 of the molar value.

| compound | target desc | pEC50 |
| --- | --- | --- |
| CC[C@H]1[C@@H](O)[C@@H]2[C@H](CC[C@]3(C)[C@@H]([C@H](C)CCc4nnc(-c5ccc(C(C)(C)C)cc5)s4)CC[C@@H]23)[C@@]2(C)CC[C@@H](O)C[C@@H]12 [Example 19] | human FXR (NR1H4) (Homo sapiens, UniProt Q96RI1) | 5.00 to 6.00 |
| CC[C@H]1[C@@H](O)[C@@H]2[C@H](CC[C@]3(C)[C@@H]([C@H](C)CCc4nnc(N)o4)CC[C@@H]23)[C@@]2(C)CC[C@@H](O)C[C@@H]12 [Example 9] | human FXR (NR1H4) (Homo sapiens, UniProt Q96RI1) | 6.00 to 7.00 |
| CC[C@H]1[C@@H](O)[C@@H]2[C@H](CC[C@]3(C)[C@@H]([C@H](C)CCc4nc(C5CC5)no4)CC[C@@H]23)[C@@]2(C)CC[C@@H](O)C[C@@H]12 [Example 11] | human FXR (NR1H4) (Homo sapiens, UniProt Q96RI1) | 5.00 to 6.00 |
| CC[C@H]1[C@@H](O)[C@@H]2[C@H](CC[C@]3(C)[C@@H]([C@H](C)CCc4nnc(-c5ccccc5)s4)CC[C@@H]23)[C@@]2(C)CC[C@@H](O)C[C@@H]12 [Example 15] | human FXR (NR1H4) (Homo sapiens, UniProt Q96RI1) | 6.00 to 7.00 |

Okay, next one:
Given item CC[C@H]1[C@@H](O)[C@@H]2[C@H](CC[C@]3(C)[C@@H]([C@H](C)CCc4nnc(N(C)C)o4)CC[C@@H]23)[C@@]2(C)CC[C@@H](O)C[C@@H]12 [Example 14] , the value recorded as its pEC50 is 6.00 to 7.00

---

# pEC50 annotations
# target desc: human FXR (NR1H4) (Homo sapiens)
# test method notes: Human FXR (NR1H4) Assay (Gal4 promoter driven luciferase reporter, Indigo Bioscience kit IB00601)
# test settings: FXR agonistic potency range; CHO reporter cells expressing human NR1H4; 22 hours incubation
pEC50: −log10 of the molar value.

| compound structure | pEC50 |
| --- | --- |
| CC[C@H]1[C@@H](O)[C@@H]2[C@H](CC[C@]3(C)[C@@H]([C@H](C)Cc4nnc(NS(=O)(=O)N(C)C)[nH]4)CC[C@@H]23)[C@@]2(C)CC[C@@H](O)C[C@@H]12 | 6.00 to 7.00 |
| CC[C@H]1[C@@H](O)[C@@H]2[C@H](CC[C@]3(C)[C@@H]([C@H](C)CCc4nnc(C5CC5)s4)CC[C@@H]23)[C@@]2(C)CC[C@@H](O)C[C@@H]12 | 6.00 to 7.00 |
| CC[C@H]1[C@@H](O)[C@@H]2[C@H](CC[C@]3(C)[C@@H]([C@H](C)CCc4nnc(C5CC5)o4)CC[C@@H]23)[C@@]2(C)CC[C@@H](O)C[C@@H]12 | 6.00 to 7.00 |

Recorded result, CC[C@H]1[C@@H](O)[C@@H]2[C@H](CC[C@]3(C)[C@@H]([C@H](C)CCc4nnc(C5CCCCC5)s4)CC[C@@H]23)[C@@]2(C)CC[C@@H](O)C[C@@H]12 , pEC50: 5.00 to 6.00

---

# target desc: human FXR (NR1H4) (Homo sapiens)
# test method notes: Human FXR (NR1H4) Assay (Gal4 promoter driven luciferase reporter, Indigo Bioscience kit IB00601)
# test settings: FXR agonistic potency range; CHO reporter cells expressing human NR1H4; 22 hours incubation
pEC50: −log10 of the molar value.
pEC50 values for the compounds below.

| compound structure | target desc | pEC50 |
| --- | --- | --- |
| CC[C@H]1[C@@H](O)[C@@H]2[C@H](CC[C@]3(C)[C@@H]([C@H](C)Cc4nnc(-c5ccc(C(C)(C)C)cc5)o4)CC[C@@H]23)[C@@]2(C)CC[C@@H](O)C[C@@H]12 | human FXR (NR1H4) (Homo sapiens) | 5.00 to 6.00 |
| CC[C@H]1[C@@H](O)[C@@H]2[C@H](CC[C@]3(C)[C@@H]([C@H](C)CCc4nnc(C5CC5)[nH]4)CC[C@@H]23)[C@@]2(C)CC[C@@H](O)C[C@@H]12 | human FXR (NR1H4) (Homo sapiens) | 5.00 to 6.00 |
| CC[C@H]1[C@@H](O)[C@@H]2[C@H](CC[C@]3(C)[C@@H]([C@H](C)CCc4nnc(Cc5ccccc5)s4)CC[C@@H]23)[C@@]2(C)CC[C@@H](O)C[C@@H]12 | human FXR (NR1H4) (Homo sapiens) | 6.00 to 7.00 |

Attention now turns to another entry.
human FXR (NR1H4) (Homo sapiens) data for CC[C@H]1[C@@H](O)[C@@H]2[C@H](CC[C@]3(C)[C@@H]([C@H](C)CCc4nnc(C(C)(C)C)s4)CC[C@@H]23)[C@@]2(C)CC[C@@H](O)C[C@@H]12 ; its pEC50: 6.00 to 7.00
